Measured values drawn from paper PMC6264177 for this set.

Test system: Chlorella vulgaris
experiment.summary: Reduction of chlorophyll content in green algae Chlorella vulgaris
Type: cell-based, Chlorella vulgaris Beij.
conditions.used: 168 h, read-out: Chlorella vulgaris IC50 (50% reduction of chlorophyll content), 7-day cultivation
pIC50: −log10 of the molar value.
Reported pIC50 values follow for various compounds

- molecule.smiles: "O=C1NC(=S)S/C1=C\\c1ccccc1O"
  pIC50: 4.23
- molecule.smiles: "O=C1NC(=S)S/C1=C\\c1ccc([N+](=O)[O-])cc1"
  pIC50: 4.66
- molecule.smiles: "O=C1NC(=S)S/C1=C\\c1cccc([N+](=O)[O-])c1"
  pIC50: 5.36
- molecule.smiles: "O=C1NC(=S)S/C1=C\\c1ccc(O)cc1O"
  pIC50: 3.97
- molecule.smiles: "O=C1NC(=S)S/C1=C\\c1ccc(Cl)cc1"
  pIC50: 5.89

###

Reported log k values follow for various compounds
experiment.summary: Lipophilicity HPLC determination (capacity factor k / log k)
Assay type: physicochemical
conditions.used: RP-HPLC, C18 column, isocratic, MeOH 70% / H2O 30%

- compound: "O=C1NC(=S)S/C1=C\\c1cccc([N+](=O)[O-])c1"
  log k: 0.2399
- compound: "O=C1NC(=S)S/C1=C\\c1cccnc1"
  log k: 0.4539
- compound: "O=C1NC(=S)S/C1=C\\c1cccc(O)c1"
  log k: 0.2744
- compound: "COc1cc(/C=C2\\SC(=S)NC2=O)ccc1O"
  log k: 0.3553
- compound: "O=C1NC(=S)S/C1=C\\c1ccccc1F"
  log k: 0.8108
- compound: "CN(C)c1ccc(/C=C2\\SC(=S)NC2=O)cc1"
  log k: 0.6466
- compound: "O=C1NC(=S)S/C1=C\\c1ccncc1"
  log k: 0.1878
- compound: "O=C1NC(=S)S/C1=C\\c1ccco1"
  log k: 0.4656
- compound: "O=C1NC(=S)S/C1=C\\c1ccc(Cl)cc1"
  log k: 0.5936
- compound: "O=C1NC(=S)S/C1=C\\c1ccccn1"
  log k: 0.4864
- compound: "O=C1NC(=S)S/C1=C\\c1cccc(Br)c1 [Compound 10b]"
  log k: 1.0820
- compound: "O=C1NC(=S)S/C1=C\\c1ccccc1Cl"
  log k: 0.9019
- compound: "O=C1NC(=S)S/C1=C\\c1cccc(F)c1"
  log k: 0.8204
- compound: "COc1ccccc1/C=C1\\SC(=S)NC1=O"
  log k: 0.5867
- compound: "O=C1/C(=C/c2ccc([N+](=O)[O-])cc2)SC(=S)N1CCO [Compound 11c]"
  log k: 0.6349
- compound: "O=C1NC(=S)S/C1=C\\c1ccc(O)cc1O"
  log k: 0.2776
- compound: "O=C1NC(=S)S/C1=C\\c1cnccn1"
  log k: 0.2359
- compound: "O=C1NC(=S)S/C1=C\\c1ccccc1[N+](=O)[O-]"
  log k: 0.2254
- compound: "O=C1NC(=S)S/C1=C\\c1ccc(F)cc1"
  log k: 0.7909
- compound: "COc1cccc(/C=C2\\SC(=S)NC2=O)c1"
  log k: 0.5713
- compound: "O=C1/C(=C/c2cccc([N+](=O)[O-])c2)SC(=S)N1CCO [Compound 11b]"
  log k: 0.6077
- compound: "O=C1NC(=S)S/C1=C\\c1ccc(O)cc1"
  log k: 0.2641
- compound: "O=C1/C(=C/c2ccccc2[N+](=O)[O-])SC(=S)N1CCO [Compound 11a]"
  log k: 0.4751
- compound: "O=C1NC(=S)S/C1=C\\c1ccccc1Br [Compound 10a]"
  log k: 0.9368
- compound: "O=C1NC(=S)S/C1=C\\c1ccc(Br)cc1 [Compound 10c]"
  log k: 0.6940
- compound: "O=C1NC(=S)S/C1=C\\c1ccc([N+](=O)[O-])cc1"
  log k: 0.2436
- compound: "O=C1NC(=S)S/C1=C\\c1ccccc1O"
  log k: 0.4664
- compound: "O=C1NC(=S)S/C1=C\\c1cccc(Cl)c1"
  log k: 1.0270
- compound: "COc1ccc(/C=C2\\SC(=S)NC2=O)cc1"
  log k: 0.5425
